Attribute: CC50
assay-procedure: in vitro
measurement-parameters: human, CC50 Cell growth
The reply should contain only the number, in µg/mL.

Examples with their reported CC50 follow.
Cc1cc(C)nc(NS(=O)(=O)c2ccc(/N=C3\C(=O)Nc4ccc(F)cc43)cc2)n1 ... 42
Cc1cc(C)nc(NS(=O)(=O)c2ccc(/N=C3\C(=O)Nc4ccccc43)cc2)n1 ... 42

Now look at this one.
Query: Report CC50 for Cc1cc(C)nc(NS(=O)(=O)c2ccc(/N=C3\C(=O)Nc4ccc(Br)cc43)cc2)n1 please.
Response: 42

###

assay-procedure: in vitro
measurement-parameters: human, CC50 Cell growth
recorded-endpoint: CC50

Example entries begin here.
Cc1ccc2c(c1)/C(=N/c1ccc(S(=O)(=O)Nc3nc(C)cc(C)n3)cc1)C(=O)N2 [SPIII-5Me] ... > 50 µg/mL
Cc1cc(C)nc(NS(=O)(=O)c2ccc(/N=C3\C(=O)Nc4ccc(Cl)cc43)cc2)n1 [SPIII-5Cl] ... > 50 µg/mL

Query: // returns reported CC50 for input CC(=O)N1C(=O)/C(=N\c2ccc(S(=O)(=O)Nc3nc(C)cc(C)n3)cc2)c2ccccc21 [SPIII-NA]
Response: > 50 µg/mL
